# ASSAY INFO: mitochondrial membrane potential change in A549 cells, profiling panel, cell-based, JC-1 fluorescence, basal, 24 h, 100 nL (AID 1138);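 further: A549 lung adenocarcinoma cells under basal conditions with no added stimulus; test concentration not given here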
# RUN PARAMETERS: higher = more signal
The following molecules are listed with their measured z-score values.
Write the value as a bare number.

MOLECULE | z-score
O=C1C2C=CC(C(O)c3ccccc3)N(Nc3ccccc3F)C2C(=O)N1c1ccccc1 (centres undefined) | 0.462

Now take the following molecule into account.
Problem: Dear colleague, I am looking for the recorded z-score of the following molecule: O=C1NC(=O)C2C1C=CC(C(O)c1ccco1)N2Nc1ccccn1 (centres undefined)
Solution: -0.109

* * *

# Tested on: Wnt5a (protein binding on small-molecule microarray)
# ASSAY INFO: Wnt5a binders on small-molecule microarray, primary screen, biophysical, 635/667 nm fluorescence (AID 1142);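 further: fluorescence read at 667 nm with signal to noise per printed feature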
# RUN PARAMETERS: 635 nm fluorescence, higher = more signal
Recorded composite z-score by entry

Answered cases to consult:
COMPOUND | composite z-score
COC(=O)C1=CC(CCCO)=CC(C2CC2)N(C)C=C1C(=O)OC (centres undefined) | 0.0676
O=C1C2C=CC(C(O)c3ccccc3)N(Nc3ccccc3F)C2C(=O)N1c1ccccc1 (centres undefined) | 0.1
O=C1N(Cc2ccccc2)Cc2ccccc2[C@@H]2OC(c3ccc(OCCCO)cc3)=N[C@]12CCS(=O)(=O)c1ccccc1 | 0.534

Could you now consider this next compound?
Problem: So what's the measured composite z-score for this one? COCCOC(=O)N1C(=O)[C@@]2(c3cc(C#CC4=CCCCC4)ccc31)[C@H](c1ccccc1OCCO)N1[C@H](c3ccccc3)[C@H](c3ccccc3)OC(=O)[C@H]1[C@@H]2C(=O)N1CCCCCCC1
Solution: 0.582

* * *

# ASSAY INFO: basal S. cerevisiae growth modulation, no modifier, primary screen, OD600, strain BY4716, 24 h, basal condition (AID 1173)
# RUN PARAMETERS: OD600, 24 h, called active from +8 up or from −8 down
The source made the active and inactive calls.
The reply should be one of these categories: 1.0 = active, 0.0 = inactive

CHEM SMILES | DISCRETE LABEL
COC(=O)Cn1c(C(=O)N(C)C)cc2c1C[C@H]1CN(C(=O)c3ccccc3)[C@@](Cc3ccc(F)cc3)(C(=O)OC)[C@@H]21 | 0.0
COC(=O)[C@@]1(Cc2ccc(F)cc2)[C@H]2c3cc(C(=O)N4CCCC4)n(CCN4CNCC4=O)c3C[C@H]2CN1C(=O)c1ccccc1 | 0.0

Next item in the queue.
Problem: Record lookup: outcome of this test for CC(C)[Si](C#CCCCC#N)(O[C@H](c1ccccc1)c1cn([C@H](CO)Cc2ccccc2)nn1)C(C)C ?
Solution: 1.0

* * *

# ASSAY INFO: splicing luciferase reporter signal modulators, primary screen, spliceosome inhibition project, cell-based, HEK293, splice +/- reporter (AID 1101);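 further: HEK293 cells carrying a splicing-competent luciferase reporter gene; test concentration not given here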
# RUN PARAMETERS: luminescence, 24 h, higher = more signal, called active from +8 up or from −8 down
QUANTITY KIND: z-score
I'd appreciate a reply containing only the number, no unit.

Examples with answers:
MOLECULE | z-score
COCCOC(=O)N1C(=O)[C@@]2(c3cc(C#CCC(C(=O)OC)C(=O)OC)ccc31)[C@H](C(=O)N1CCc3cc(OC)c(OC)cc3C1)[C@H]1C(=O)O[C@H](c3ccccc3)[C@H](c3ccccc3)N1[C@@H]2c1ccc(OCCO)cc1 | 0.382
C=CCOC(=O)[C@H]1[C@@H]2C(=O)O[C@@H](c3ccccc3)[C@@H](c3ccccc3)N2[C@@H](c2ccc(OCCOC(=O)[C@@H]3C[C@@H]4C(=O)N[C@@H](CCCCNC(C)=O)C(=O)N4[C@@H]3c3ccc(O)cc3)cc2)[C@]12C(=O)Nc1ccc(I)cc12 | -0.151
NC(=O)NCC#Cc1ccc2c(c1)[C@]1(C(=O)N2)[C@H](C(=O)NC[C@H](O)c2ccccc2)[C@H]2C(=O)O[C@H](c3ccccc3)[C@H](c3ccccc3)N2[C@@H]1c1ccc(OCCO)cc1 | 0.822
CC[C@H]1C2=C3C(CC[C@H]4C(OCc5ccc(F)cc5C(F)(F)F)OC[C@](C)([C@@H]34)N(C(=O)OC(C)(C)C)C2)C(COC)C1COC (stereo partly specified) | 0.477
CN(C)C(=O)[C@@]1(Cc2ccccc2CN=[N+]=[N-])N=C(c2ccc(OCCCO)cc2)O[C@H]1c1ccccc1CN=[N+]=[N-] | 1.2

Problem: Entry under review: COc1ccc([Si](C)(C)[C@@H]2[C@@H](CCO)O[C@]3(C(=O)N(Cc4ccc(N5CCCCC5=O)cc4)c4ccccc43)[C@H]2C)cc1 . Reported z-score?
Solution: -1.73

Problem: Entry COC(=O)C1=CC(CCCO)=CC(C2CC2)N(C)C=C1C(=O)OC (stereo unspecified) : reported z-score = ?
Solution: -0.519

Problem: Could you share which z-score value was measured for CC(CO)N1C(=O)[C@@H]2[C@H]3C(=O)OCC=C[C@H]3OC23C=CCN(Cc2ccccc2)C(=O)[C@@H]13 (stereo partly specified) ?
Solution: -1.11

Problem: Record request: z-score value, item O=C1C=C(c2ccccc2)C(=O)c2ccc([C@H]3Oc4ccccc4S(=O)(=O)N4CCC[C@@H]34)cc21
Solution: 0.781

Problem: # query: z-score of entry CCOC(=O)C[C@H]1[C@H](OC(=O)Cc2ccc3c(c2)OCO3)[C@@H](NC(=O)CC(C)C)c2cc(OCCCO)ccc2N1C(=O)Cc1ccc(OC)cc1
Solution: -1.86

Problem: Quick check: z-score of CC(=O)NCCCC[C@@H]1NC(=O)[C@@H]2C[C@H](C(=O)NCCCC[N+](C)(C)C)[C@H](c3ccc(O)cc3)N2C1=O ?
Solution: -1.47

Problem: Query: z-score; subject: C=CCNC(=O)[C@H]1[C@@H]2C(=O)O[C@@H](c3ccccc3)[C@@H](c3ccccc3)N2[C@@H](c2ccc(O)cc2)[C@]12C(=O)Nc1ccc(C#CC3(O)CCCCCC3)cc12
Solution: 0.558

Problem: Using the record for C=C(COC)/C(=C/C[C@H](OC(C)=O)c1ccc(OCCO)cc1)c1cc(C(=O)OC)ccc1OC , report its z-score.
Solution: -0.195
